The reported numbers originate from patent US11141452.

- STUDY_TARGET: T1, rat NK1 receptor (rat, UniProt P14600)
- T1 chain: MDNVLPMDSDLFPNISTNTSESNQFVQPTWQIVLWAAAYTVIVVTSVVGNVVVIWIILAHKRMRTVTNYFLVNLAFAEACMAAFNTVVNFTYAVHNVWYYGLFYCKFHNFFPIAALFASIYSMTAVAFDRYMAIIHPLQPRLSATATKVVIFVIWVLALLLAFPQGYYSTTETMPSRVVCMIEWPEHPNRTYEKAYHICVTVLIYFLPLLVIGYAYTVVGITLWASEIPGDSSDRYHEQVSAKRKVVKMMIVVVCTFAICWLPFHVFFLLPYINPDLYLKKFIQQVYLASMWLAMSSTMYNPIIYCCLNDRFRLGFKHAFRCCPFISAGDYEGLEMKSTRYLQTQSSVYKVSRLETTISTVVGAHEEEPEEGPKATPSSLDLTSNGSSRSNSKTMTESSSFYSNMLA
- ASSAY_PROCEDURE: competition
pKi: −log10 of the molar value. Non-standard residues stand in square brackets, D forms with d. No end group written: not given here. *: point of attachment. NH(3,5-(CF3)2-benzyl) = FC(F)(F)c1cc(CN*)cc(C(F)(F)F)c1; NMeF = CN[C@@H](Cc1ccccc1)C(=O)O; 4‑Ampa = not defined here; NHBn = c1ccc(CN*)cc1; Ahx = NCCCCCC(=O)O

{"BINDER": "Y[dA]G[NMeF][4‑Ampa]PLW-{NH(3,5-(CF3)2-benzyl)} (reading uncertain) [AKG178]", "pKi": 7.14}
{"BINDER": "Y[dA]G[NMeF][Ahx]PLW-{NH(3,5-(CF3)2-benzyl)} [AKG124]", "pKi": 7.35}
{"BINDER": "Y[dA]G[NMeF]MPLW-NHBn [AKG106]", "pKi": 8.00}
